target: human Mac-1 (integrin αMβ2, CD11b/CD18) (human, UniProt P11215 17-1152; P05107 23-769); test: flow cytometry, HEK293/Mac-1 cells, PBS/MnCl2 (Mn2+), 10 µg/ml of this antibody; binding of reporter mAb KIM127 read
measure_name: KIM127 (Expression relative to IgG4)

// solved cases for KIM127 (Expression relative to IgG4) follow
anti-Mac-1 antibody clone 27A04 (antibody, human IgG4, V domains shown) VH: QVKLQQSGPELVKPGASVKISCKASGYSFTDYNMNWVKQSNGKSLEWIGVINPNYGTTSYNQKFKGKATLTVDQSSSTAYMQLNSLTSEDSAVYYCARTYDYDGDAFAYWGQGTTVTVSS VL: DIELTQSPAIMSASPGEKVTMTCSASSSVSYMHWYQQKSGTSPKRWIYDTSKLASGVPARFSGSGSGTSYSLTISSMEAEDAATYYCQQWSSNPPTFGAGTKLELK: 0.7 relative to IgG4
anti-Mac-1 antibody clone 25A06 (antibody, human IgG4, V domains shown) VH: EVQLVESGGGLVQPGGSLRLSCAASGFTFSSYYMSWVRQAPGKGLEWVSTINYDGSEKDYADSVKGRFTISRDNSKNTLYLQMNSLRAEDTAVYYCARDRLGNYPWFDVWGQGTLVTVSS VL: DIQMTQSPSSLSASVGDRVTITCRASQSISNYLAWYQQKPGKAPKLLIYDANNLQSGVPSRFSGSGSGTDFTLTISSLQPEDFATYYCQQSYSWPLTFGQGTKVEIK: 1.74 relative to IgG4
anti-Mac-1 antibody clone 27D06 (antibody, human IgG4, V domains shown) VH: QVKLQESGAEVVKPGASVKISCKASGYSFTDYNMNWVKQSNGKSLEWIGVINPNYGTTSYNQKFKGKATLTVDQSSSTAYMQLNSLTSEDSAVYYCARTYDYDGDAFAYWGQGTTVTVSS VL: DIELTQSPALMSASPGEKVTMTCRASSSVSSNNLHWYQQKSGASPKLWIYSTSNLATGAPARFSGSGSGTSYSLTISSMEAEDAATYYCQQWNSNPPTFGGGTKLEIK: 1.05 relative to IgG4
anti-Mac-1 antibody clone 24G09 (antibody, human IgG4, V domains shown) VH: EVQLVESGGGLVQPGGSLRLSCAASGFTFSDYAIGWVRQAPGKGLEWVSTIYWSGSNAYYADSVKGRFTISRDNSKNTLYLQMNSLRAEDTAVYYCARLFTLGYHGFDVWGQGTLVTVSS VL: DIQMTQSPSSLSASVGDRVTITCRASQSINTYLNWYQQKPGKAPKLLIYDASNLQSGVPSRFSGSGSGTDFTLTISSLQPEDFATYYCQQYDDLPFTFGQGTKVEIK: 0.89 relative to IgG4

Now consider the entry below.
Name the reported KIM127 (Expression relative to IgG4) value associated with the binder anti-Mac-1 antibody clone 28E07 (antibody, human IgG4, V domains shown) VH: QVQLQQSGPELVKPGASVKISCKASGYSFTDYNMNWVKQSNGKSLEWIGEINPGYGTSRYNQKFKDKATLTVDQSSTTAYMQLNSLTSEDSAVYYCARADVDYGDVMDYWGQGTTVTVSS VL: DIELTQSPAIMSASPGEKVTMTCSASSSVSYMHWYQQKSGTSPKRWIYDTSKLASGVPTRFSGSGSGTSYSLTISSMEAEDAATYYCQQWSSNPPTFGAGTKLELK
0.65 relative to IgG4
